target: E3 ubiquitin-protein ligase XIAP (Homo sapiens); assay: XIAP binders, primary screen, biophysical, small-molecule microarray, fluorescence 635 nm (AID 1181); details: small-molecule microarray binding, higher = more signal;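 further: score merges 667 nm emission and signal to noise over triplicate slides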
Measure Name: composite z-score

Some solved cases for reference:
O=C(NN=C1C[C@@H](O)[C@@H](O)[C@@H]2[C@@H]3C(=O)N(Cc4ccccc4)C(=O)[C@@H]3CC[C@@H]12)OCc1ccccc1 :: -0.0344
COc1ccc(COC(=O)NN=C2C[C@@H](O)[C@@H](O)[C@@H]3[C@@H]4C(=O)N(c5cccc(Oc6ccccc6)c5)C(=O)[C@@H]4CC[C@@H]23)cc1 :: -0.22
CCc1cc2c(nc1CC)CCN(CCC(C)=NO[C@H](C)c1cn([C@@H]3COC[C@H]3O)nn1)C2 :: 0.0368
COC(=O)[C@@H]1CC[C@@H](C)[C@H](c2ccc(Br)cc2)N1 :: 0.0548
CC(=O)OC[C@H]1O[C@H](C#Cc2ccccc2)C=C[C@@H]1OC(C)=O :: -0.13
CCCCC#C[C@@H]1C=C[C@H](Oc2ccc(C(=O)OC)cc2)[C@@H](COC(=O)OCC)O1 :: -0.194

Please state composite z-score for every molecule in the list that follows.
1. CCOC(=O)[C@H](CC(C)C)NC(=O)CCC1CC(OC(=O)NCc2cccc3ccccc23)CC2(CCCC(COC(=O)NCCOC)O2)O1 (some centres undefined)
2. O=C1CCCC=C1C(CCc1ccccc1)OC(=O)c1ccc(Br)cc1 (centres undefined)
3. COC(=O)CC=C[C@@H](C)[C@@H](C=NO[C@@H](C)c1cn([C@H](CO)Cc2ccccc2)nn1)OC

1: 0.0589; 2: 0.289; 3: -0.139

This collection of values is drawn from PubChem BioAssay.
